Biological target: GST-Nv-NF-kB (Ser allele) (Nematostella vectensis, UniProt A7UNT2 2-411)
Sequence: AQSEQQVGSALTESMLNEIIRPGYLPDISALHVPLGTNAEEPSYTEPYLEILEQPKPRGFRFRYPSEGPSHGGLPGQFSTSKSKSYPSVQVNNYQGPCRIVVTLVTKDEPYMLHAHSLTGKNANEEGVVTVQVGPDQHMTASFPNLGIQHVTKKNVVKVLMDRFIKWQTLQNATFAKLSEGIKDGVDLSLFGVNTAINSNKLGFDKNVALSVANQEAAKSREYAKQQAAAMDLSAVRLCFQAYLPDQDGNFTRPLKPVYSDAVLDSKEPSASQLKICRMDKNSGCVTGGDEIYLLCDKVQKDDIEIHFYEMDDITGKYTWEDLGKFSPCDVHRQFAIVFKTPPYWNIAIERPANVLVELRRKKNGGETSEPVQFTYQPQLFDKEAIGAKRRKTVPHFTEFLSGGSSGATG
Assay: protein-binding microarray (PBM); PBM: ~300 nM protein, 6 mM HEPES pH 7.8, 80 mM KCl, 0.5 mM EDTA, 0.5 mM EGTA, 6% glycerol, 35 ng/ul poly-dIdC, 1% milk, 1 h, room temperature; high values mean tight binding
Conditions: dsDNA, one strand shown
Parameter measured: binding signal

Would you please look over these solved cases?
CCGATTAACATCAAGGGGAAGGGTGATGTTAATCGGGTCTTGATTCGCTTGACGCTGCTG	5.81 z-score
CCGATTAACATCAACCATTCCCCTGATGTTAATCGGGTCTTGATTCGCTTGACGCTGCTG	7.06 z-score
CCGATTAACATCAGACATCCCCCTGATGTTAATCGGGTCTTGATTCGCTTGACGCTGCTG	5.36 z-score
CCGATTAACATCAGGGAAAACTATGATGTTAATCGGGTCTTGATTCGCTTGACGCTGCTG	7.33 z-score
CCGATTAACATCACGGGGGGGGATGATGTTAATCGGGTCTTGATTCGCTTGACGCTGCTG	5.38 z-score

Query :: Quote GST-Nv-NF-kB (Ser allele) (Nematostella vectensis, UniProt A7UNT2 2-411) binding signal for entry CCGATTAACATCAGGTATCCCCATGATGTTAATCGGGTCTTGATTCGCTTGACGCTGCTG .
Result :: 4.07 z-score

Query :: Supply binding signal measured with GST-Nv-NF-kB (Ser allele) (Nematostella vectensis, UniProt A7UNT2 2-411) for CCGATTAACATCAGGGAATGTTATGATGTTAATCGGGTCTTGATTCGCTTGACGCTGCTG .
Result :: 3.78 z-score

Query :: Please report the measured binding signal for CCGATTAACATCAGCCCCCCGTCTGATGTTAATCGGGTCTTGATTCGCTTGACGCTGCTG tested on GST-Nv-NF-kB (Ser allele) (Nematostella vectensis, UniProt A7UNT2 2-411).
Result :: 1.71 z-score

Query :: For GST-Nv-NF-kB (Ser allele) (Nematostella vectensis, UniProt A7UNT2 2-411), give the measured binding signal of the entry CCGATTAACATCAACTACCCCCCTGATGTTAATCGGGTCTTGATTCGCTTGACGCTGCTG
Result :: 3.11 z-score

====

Molecular target: GST-Co-NF-kB (Capsaspora owczarzaki, UniProt F1ARL5 200-546)
Sequence: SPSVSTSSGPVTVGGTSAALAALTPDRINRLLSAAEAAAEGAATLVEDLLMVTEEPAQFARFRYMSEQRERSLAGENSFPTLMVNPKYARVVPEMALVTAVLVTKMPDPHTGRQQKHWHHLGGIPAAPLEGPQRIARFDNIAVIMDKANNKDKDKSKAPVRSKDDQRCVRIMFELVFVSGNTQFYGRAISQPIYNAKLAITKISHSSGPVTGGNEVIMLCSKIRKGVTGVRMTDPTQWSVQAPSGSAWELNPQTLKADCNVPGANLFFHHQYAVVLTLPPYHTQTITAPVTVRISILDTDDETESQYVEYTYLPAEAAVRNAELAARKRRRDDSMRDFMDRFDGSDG
Assay: protein-binding microarray (PBM); PBM: ~300 nM protein, 6 mM HEPES pH 7.8, 80 mM KCl, 0.5 mM EDTA, 0.5 mM EGTA, 6% glycerol, 35 ng/ul poly-dIdC, 1% milk, 1 h, room temperature; Ap Aiptasia and Nv Nematostella (sea anemones) / Co Capsaspora / Aq Amphimedon (sponge) / Dm Drosophila / Hu human; RHD is the Rel homology domain; high values mean tight binding
Conditions: dsDNA, one strand shown
Parameter measured: binding signal (z-score)
Express it in z-score; write the number only.

CCGATTAACATCAGAATTTTCCCTGATGTTAATCGGGTCTTGATTCGCTTGACGCTGCTG	5.08
CCGATTAACATCAGGGGAAAATATGATGTTAATCGGGTCTTGATTCGCTTGACGCTGCTG	10.2
CCGATTAACATCACCCCCCCCCGTGATGTTAATCGGGTCTTGATTCGCTTGACGCTGCTG	7.6
CCGATTAACATCATCCGGGAAAATGATGTTAATCGGGTCTTGATTCGCTTGACGCTGCTG	4.53
CCGATTAACATCAGGGAATACCCTGATGTTAATCGGGTCTTGATTCGCTTGACGCTGCTG	3.79

Query :: Name the recorded binding signal of the item CCGATTAACATCAAGAAGTCCCCTGATGTTAATCGGGTCTTGATTCGCTTGACGCTGCTG in your answer.
Result :: 3.14

Query :: Determine its reported binding signal: CCGATTAACATCAACCCTCCCCCTGATGTTAATCGGGTCTTGATTCGCTTGACGCTGCTG
Result :: 4.5

Query :: Please give measured binding signal of the following entry: CCGATTAACATCAAGGAGTCCCCTGATGTTAATCGGGTCTTGATTCGCTTGACGCTGCTG
Result :: 3.12
